- Assay Name: physchem
- Setup Conditions: 50 mMol KH2PO4 solution, 37 °C, pH 6.8, aqueous buffer, thermodynamic from solid
Value Kind: solubility at 15 min (µg/mL)
Give bare numbers, in µg/mL.

Identify the reported solubility at 15 min for the following entry. C=CC(=O)N1CCC[C@@H](n2nc(-c3ccc(Oc4ccccc4)cc3)c3c(N)ncnc32)C1
10

* * *

- Assay Name: physchem
- Setup Conditions: 20 mMol NaAc solution, 37 °C, pH 4.5, aqueous buffer, thermodynamic from solid
Value Kind: solubility at 15 min
Just so you know, I need the unit written after the number.

Answer with the recorded solubility at 15 min of C=CC(=O)N1CCC[C@@H](n2nc(-c3ccc(Oc4ccccc4)cc3)c3c(N)ncnc32)C1 only.
10 µg/mL
